The measured values listed here are drawn from ChEMBL document CHEMBL1201862.

# Tested on: HOP-92
# procedure-details: NCI tumour cell line growth inhibition, 48 h
Active and inactive are the calls of the source. Cut-off read from the data, not from the text of the source: active = GI50 up to about 1.1 µM and inactive = higher.
Use one of these outcomes when replying: active, inactive

Can you look up the reported call for CC(=O)CC(=O)Nn1c(-c2cccs2)nc2ccc(I)cc2c1=O for me?
inactive

Can you look up the reported call for CC[n+]1c(/C=C/c2ccc(N(CCCl)CCCl)cc2)ccc2cc(NC(=O)/C=C/c3ccccc3)ccc21 for me?
active

Can you look up the reported call for NC(=O)NC(=O)CCC(NS(=O)(=O)c1ccccc1)C(=O)NC(N)=O (stereo unspecified) for me?
inactive

Can you look up the reported call for CCOC(=O)C(C)Sc1nnc(COc2ccc(Cl)cc2)n1-c1ccccc1 (stereo unspecified) for me?
inactive

Can you look up the reported call for CCOC(=O)c1sc2[n+](c1C)C(=O)/C(=C/c1ccccc1Cl)S2 for me?
inactive

Can you look up the reported call for CC(C)(C)C(O)CC(O)(C(F)(F)F)C(F)(F)F (stereo unspecified) for me?
inactive

----------
# System: T47D
# procedure-details: NCI tumour cell line growth inhibition, 48 h
The source made the active and inactive calls. Cut-off read from the data, not from the text of the source: active = GI50 up to about 1.1 µM and inactive = higher.
Provide the recorded GI50 for the entries that follow.

// N=C(N)N/N=C/c1c(-c2ccc(N)cc2)nc2sccn12 : GI50 value = 21.1 µM (inactive)

// c1cc2c3ccsc3c3sccc3c2s1 : GI50 value = > 100 µM (inactive)

// COC(=O)C1C(C(=O)OC)C2(OC(c3ccc(Cl)cc3)=CC2=O)C12OC(c1ccc(Cl)cc1)=CC2=O (stereo not drawn) : GI50 value = 14.8 µM (inactive)

// C=CCSC(C)=O : GI50 value = > 100 µM (inactive)

// CCN(CC)CCC1CCCCN1CC(=O)N1c2ccccc2NC(=O)CC1C (stereo not drawn) : GI50 value = > 100 µM (inactive)

// COC1=CC2=NCCc3n[nH]c(c32)C1=O : GI50 value = 2.9 µM (inactive)

// c1csc(-c2cc(-c3cccs3)c(-c3ccsc3)s2)c1 : GI50 value = 17.6 µM (inactive)

// Brc1ccc2c(-c3nc(-c4c[nH]c5ccc(Br)cc45)cs3)c[nH]c2c1 : GI50 value = 4.86 µM (inactive)

// O=c1oc2ccc3ccccc3c2cc1-c1nc2ccccc2s1 : GI50 value = > 66.7 µM (inactive)

// O=C(O)CN(CC(=O)O)Cc1cc2c(cc1O)Oc1cc(O)c(CN(CC(=O)O)CC(=O)O)cc1C21OC(=O)c2ccccc21 [OFTASCEINE] : GI50 value = > 100 µM (inactive)

// Cc1ccc(S(=O)(=O)NC(=O)NNc2ccc(F)cc2)cc1 : GI50 value = > 100 µM (inactive)

// O=C(c1ccccc1)c1ccc2[nH]c(-c3c(Cl)c(Cl)c(Cl)c(Cl)c3C(=O)Nc3ccco3)nc2c1 : GI50 value = 37 µM (inactive)

// CCOC(=O)CCC(NC(=O)c1ccc(Oc2nc3c(N)cc(C(F)(F)F)cc3nc2-c2ccccc2)cc1)C(=O)OCC (stereo not drawn) : GI50 value = 39.6 µM (inactive)

----------
# System: PC-3
# procedure-details: NCI tumour cell line growth inhibition, 48 h
The source made the active and inactive calls. No stated cut-off is given here; in the data, active = GI50 up to about 1.1 µM and inactive = higher.
Provide the recorded GI50 for the entries that follow.

// [O-][n+]1onc2c1-c1nonc1CC2 : GI50 value = 26.5 µM (inactive)

// CC(=O)OC1CC2C(=O)C(=O)C1(C)C2(C)C (centres undefined) : GI50 value = > 100 µM (inactive)

// Cc1cc(=O)oc2c(CN(CCCl)CCCl)c(O)ccc12 : GI50 value = 44 µM (inactive)

// CC1CCCC2(CC[N+](C)(CCC[N+](C)(C)C)CC2)C1 (centres undefined) : GI50 value = > 100 µM (inactive)

// O=S(=O)(O)c1cc(/N=N/c2c(O)ccc3ccccc23)c2c(S(=O)(=O)O)cccc2c1 : GI50 value = > 100 µM (inactive)

// C=C(C)[C@@H]1CC[C@]2(C(=O)O)CC[C@]3(C)[C@H](CC[C@@H]4[C@@]5(C)CC[C@H](O)C(C)(C)[C@@H]5CC[C@]43C)[C@@H]12 [BETULINIC ACID] : GI50 value = 7.48 µM (inactive)

// COC(=O)C1=C(C(=O)OC)SC(=C2SC3=C(SC(=C4SCCS4)S3)S2)S1 : GI50 value = > 100 µM (inactive)

// CC[C@]1(Cc2ccc(OC)c(OC)c2)C=[N+]([O-])O[C@H](OC2CCCC2(c2ccccc2)c2ccccc2)[C@@H]1OC(=O)C(C)(C)C (some centres undefined) : GI50 value = 3.69 µM (inactive)

// O=C1C(Br)=C(c2ccccc2)C(c2ccccc2)=C1c1ccccc1 : GI50 value = 4.1 µM (inactive)

----------
# Tested on: SK-MEL-2
# procedure-details: NCI tumour cell line growth inhibition, 48 h
Activity calls are given as the source filed them. No stated cut-off is given here; in the data, active = GI50 up to about 1.1 µM and inactive = higher. Where a SMILES comes first, the peptide text is derived from it. The star is where a group is joined. Cbz = O=C(OCc1ccccc1)*; Boc = CC(C)(C)OC(=O)*; OSu = O=C1CCC(=O)N1O*; Bn = c1ccc(C*)cc1
reported-property: GI50

Considering O=Cc1ccc(-c2nccc3c2[nH]c2ccccc23)o1 , its GI50 with SK-MEL-2 was recorded as > 95.5 µM (inactive)

Considering COC(=O)C1=C(C)C(=O)C2(CCCCCC2C(=O)OC)C1 (configuration not stated) , its GI50 with SK-MEL-2 was recorded as > 100 µM (inactive)

Considering CCN(CC)CCC1CCCCN1CC(=O)N1c2ccccc2NC(=O)CC1C (configuration not stated) , its GI50 with SK-MEL-2 was recorded as > 100 µM (inactive)

Considering c1cc2c3ccsc3c3sccc3c2s1 , its GI50 with SK-MEL-2 was recorded as 10.6 µM (inactive)

Considering CC1(C)OCC2OC(n3cnc4c(N)nc(Cl)nc43)C(OS(C)(=O)=O)C2O1 (configuration not stated) , its GI50 with SK-MEL-2 was recorded as > 100 µM (inactive)

Considering Cc1c(NC(=O)C(C)(C)Br)c(=O)oc2c(C)c3occc(=O)c3cc12 , its GI50 with SK-MEL-2 was recorded as 59.6 µM (inactive)

Considering O=c1oc2c3ccc4ccccc4c3n(Cc3nc4ccccc4[nH]3)c2c2ccccc12 , its GI50 with SK-MEL-2 was recorded as 41.3 µM (inactive)

Considering Cc1[nH]c(-c2ccccc2)c2nc(N(C)C)oc(=O)c12 , its GI50 with SK-MEL-2 was recorded as > 100 µM (inactive)

Considering Cc1nn(C)c(=O)c2nn(-c3ccccc3)c(C)c12 , its GI50 with SK-MEL-2 was recorded as > 100 µM (inactive)

Considering CC(C)(C)OC(=O)NC(Cc1ccc(OCc2ccccc2)cc1)C(=O)NC(CCCCNC(=O)OCc1ccccc1)C(=O)ON1C(=O)CCC1=O (configuration not stated) (Boc-Tyr(Bn)-Lys(Cbz)-OSu; configuration not given here) , its GI50 with SK-MEL-2 was recorded as 17.4 µM (inactive)

Considering CCN1C/C(=C\c2ccc(Cl)cc2)c2nc(N)c(C#N)c(-c3ccc(Cl)cc3)c2C1 , its GI50 with SK-MEL-2 was recorded as > 100 µM (inactive)

Considering CCOC(=O)[C@@]12C(C)=CC(=O)O[C@]1(C)C1C(=O)NC(=O)C12 (some centres not stated) , its GI50 with SK-MEL-2 was recorded as > 100 µM (inactive)

Considering Cn1cnc(C(N)=[Se])c1N , its GI50 with SK-MEL-2 was recorded as 2.27 µM (inactive)

Considering N#C/C(=C\c1ccc(Cl)cc1)c1nc2ccccc2c(=O)[nH]1 , its GI50 with SK-MEL-2 was recorded as > 100 µM (inactive)

Considering N#CC1C(=O)NC(=O)C1=O (configuration not stated) , its GI50 with SK-MEL-2 was recorded as > 100 µM (inactive)

Considering COc1ccc(C(=O)c2ccc(-n3c4ccccc4c4ccc5c(c43)C(=O)C=CC5=O)cc2)cc1 , its GI50 with SK-MEL-2 was recorded as 3.88 µM (inactive)

Considering CCCCOCn1c(=O)[nH]c(=O)c2ccccc21 , its GI50 with SK-MEL-2 was recorded as 91.8 µM (inactive)

Considering CSCCCNC(=O)c1csc(-c2csc(CCNC(=O)CNC(=O)CNC(=O)CNC(=O)OC(C)(C)C)n2)n1 , its GI50 with SK-MEL-2 was recorded as > 100 µM (inactive)

Considering Cc1cc(Cl)ccc1C1OC(=O)c2c1ccc1ccccc21 (configuration not stated) , its GI50 with SK-MEL-2 was recorded as > 100 µM (inactive)

Considering Cn1nc2ccc(Nc3cc(=O)[nH]c4ccc5nn(C)nc5c34)cc2n1 , its GI50 with SK-MEL-2 was recorded as > 100 µM (inactive)

Considering CCOC(=O)NC(=O)c1cn(CCCOC(=O)CCCCCCCCCCC(=O)OCCCn2cc(C(=O)NC(=O)OCC)c(=O)[nH]c2=O)c(=O)[nH]c1=O , its GI50 with SK-MEL-2 was recorded as > 100 µM (inactive)

Considering O=c1[nH]c(=O)n(COC(CO)CO)cc1-c1ccccc1 , its GI50 with SK-MEL-2 was recorded as > 100 µM (inactive)
